Tested on: MFE-319 (Endometrial Carcinoma)
Test: Bliss excess, mean over the matrix (fraction); higher = more synergy;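 note: after 72 h of two-drug dosing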
Provide the reported Bliss excess of each item.

Example entries begin here.
COc1cccc2c1C(=O)c1c(O)c3c(c(O)c1C2=O)C[C@@](O)(C(=O)CO)C[C@@H]3O[C@H]1C[C@H](N)[C@H](O)[C@H](C)O1 [Doxorubicin] + Cc1cc2ncnn2cc1Nc1ncc2c(n1)n(C1CCOCC1)c(=O)n2C [AZD7648] (first compound max 1 µM, 7x7, partner max 10 µM); 0.0152
Cn1cnc2c(F)c(Nc3ccc(Br)cc3Cl)c(C(=O)NOCCO)cc21 [Selumetinib] + C=CCn1c(=O)c2cnc(Nc3ccc(N4CCN(C)CC4)cc3)nc2n1-c1cccc(C(C)(C)O)n1 [AZD1775] (first compound max 10 µM, partner max 1 µM); -0.0715
CC1(C)CCC(CN2CCN(c3ccc(C(=O)NS(=O)(=O)c4ccc(NCC5CCOCC5)c([N+](=O)[O-])c4)c(Oc4cnc5[nH]ccc5c4)c3)CC2)=C(c2ccc(Cl)cc2)C1 [Venetoclax] + C[C@@H](Nc1cc(F)cc(F)c1)c1cc(C(=O)N(C)C)cc2c(=O)cc(N3CCOCC3)oc12 [AZD8186] (first compound max 1 µM, 7x7, partner max 3 µM); -0.0419

If you can, please state the reported Bliss excess value of CC(=O)Nc1cccc(-n2c(=O)n(C3CC3)c(=O)c3c(Nc4ccc(I)cc4F)n(C)c(=O)c(C)c32)c1 [Trametinib] + Cc1nc(-c2cn3c(n2)-c2ccc(-c4cnn(C(C)(C)C(N)=O)c4)cc2OCC3)n(C(C)C)n1 [Taselisib] (first compound max 1 µM, 7x7, partner max 10 µM) .
0.0681

* * *

System: GOTO (Neuroblastoma)
Test: Bliss excess, mean over the matrix (fraction); higher = more synergy
Response key: MET means Bliss excess >= 0.02; NOT MET means Bliss excess < 0.02.

Consider the worked cases shown below.
CCN(CCO)CCCOc1ccc2c(Nc3cc(CC(=O)Nc4cccc(F)c4)[nH]n3)ncnc2c1 [AZD2811] + O=C(c1cc(Cc2n[nH]c(=O)c3ccccc23)ccc1F)N1CCN(C(=O)C2CC2)CC1 [Olaparib] (first compound max 1 µM, 7x7, partner max 10 µM); MET
C[C@@H](c1ccc2nccn2c1)n1nnc2ncc(-c3cnn(C)c3)nc21 [Savolitinib] + Cc1c2c(nn1C)CSCc1cc(n(C)n1)CSc1cc(c3ccccc3c1)OCCCc1c(C(=O)O)n(C)c3c-2c(Cl)ccc13 [AZD5991] (first compound max 1 µM, 7x7, partner max 1 µM); NOT MET
Cc1c2c(nn1C)CSCc1cc(n(C)n1)CSc1cc(c3ccccc3c1)OCCCc1c(C(=O)O)n(C)c3c-2c(Cl)ccc13 [AZD5991] + Cn1cnc2c(F)c(Nc3ccc(Br)cc3Cl)c(C(=O)NOCCO)cc21 [Selumetinib] (first compound max 1 µM, 7x7, partner max 3 µM); NOT MET
C=CCn1c(=O)c2cnc(Nc3ccc(N4CCN(C)CC4)cc3)nc2n1-c1cccc(C(C)(C)O)n1 [AZD1775] + O=C(c1cc(Cc2n[nH]c(=O)c3ccccc23)ccc1F)N1CCN(C(=O)C2CC2)CC1 [Olaparib] (first compound max 1 µM, partner max 10 µM); NOT MET

We next turn to a different compound, shown below.
Form field: Bliss excess at least 0.02? Entry: C[C@@H](c1ccc2nccn2c1)n1nnc2ncc(-c3cnn(C)c3)nc21 [Savolitinib] + CN(CC[C@H](CSC1=CC=CC=C1)NC2=C(C=C(C=C2)S(=O)(=O)NC(=O)C3=CC=C(C=C3)N4CCC(CC4)[C@H](C5=CC=CC=C5C6=CC=C(C=C6)Cl)O)S(=O)(=O)C(F)(F)F)CCO [AZD4320] (first compound max 1 µM, 7x7, partner max 1 µM)
NOT MET
